# system: IgE-Tb / FcεRIα-Y131A-AF488 (Homo sapiens)
# Sequence (P01854 1-427 limits assumed, stated change not applied): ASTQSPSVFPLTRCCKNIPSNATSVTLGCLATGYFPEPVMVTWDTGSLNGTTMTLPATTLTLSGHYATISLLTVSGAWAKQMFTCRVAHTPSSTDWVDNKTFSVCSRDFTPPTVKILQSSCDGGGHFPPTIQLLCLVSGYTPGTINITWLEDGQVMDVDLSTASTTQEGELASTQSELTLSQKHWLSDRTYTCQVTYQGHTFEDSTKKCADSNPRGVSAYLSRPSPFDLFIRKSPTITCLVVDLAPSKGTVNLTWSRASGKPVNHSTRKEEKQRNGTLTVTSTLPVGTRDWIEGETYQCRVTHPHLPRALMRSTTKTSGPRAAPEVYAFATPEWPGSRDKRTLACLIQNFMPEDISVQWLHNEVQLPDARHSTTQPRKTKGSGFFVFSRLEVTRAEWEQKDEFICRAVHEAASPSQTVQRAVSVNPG
# test-method-notes: IgE-Tb / FcεRIα-Y131A-AF488 FRET assay (protocol for examples 1 to 233)
# Type: binding
# cond: examples 1 to 233: 5 nM IgE-Tb, 25 nM FcεRIα-Y131A-AF488, incubated 2 hours at room temperature; read-out: Y131A FRET IC50 range
pIC50: −log10 of the molar value. Where a name gives a salt, the structure may show the parent alone.
Please provide measured pIC50 for the entries that follow.

Below, 5 compounds whose answers are already recorded.
{"compound": "N#CC1CCc2sc(NC(=O)C3CC3)c(C(=O)NCC3CC3)c2C1 (centres unmarked) [Example 64]", "test-result": "5.00 to 6.00"}
{"compound": "CC1(CNc2nncn2[C@H]2CCc3sc(NC(=O)C4CC4)c(C(=O)NCC4CC4)c3C2)CC1 [Example 112]", "test-result": "> 6.00"}
{"compound": "O=C(NCC1CC1)c1c(NC(=O)C2CC2)sc2c1C[C@@H](n1cnnc1Nc1ccncc1)CC2 [Example 115]", "test-result": "> 6.00"}
{"compound": "CNC(=O)c1c(NC(=O)C2CC2)sc2c1CCCC2O (centres unmarked) [Example 79]", "test-result": "4.30 to 5.00"}
{"compound": "Cc1nnc(-c2ncn([C@H]3CCc4sc(NC(=O)C5CC5)c(C(=O)NCC5CC5)c4C3)c2N)o1 [Example 216]", "test-result": "> 6.00"}

# batch size: 4; output pIC50 per entry
1. O=C(Nc1sc2c(c1C(=O)N1CCC3(CC3)C1)CC(n1cnnc1Nc1cccnc1)CC2)C1CC1 (single isomer, unassigned) [Example 129]
2. CC(=O)NC1CCc2sc(NC(=O)C3CC3)c(C(=O)NCC3CC3)c2C1 (centres unmarked) [Example 206]
3. O=C(NCC1CC1)c1c(NC(=O)C2CC2)sc2c1CC(Nc1ncc3ccccc3n1)CC2 (centres unmarked) [Example 182]
4. CC1CC1C(=O)Nc1sc2c(c1C(=O)NCC1CC1)CCCC2 (single isomer, unassigned) [Example 90]

1. 5.00 to 6.00
2. 5.00 to 6.00
3. > 6.00
4. 5.00 to 6.00

Record pIC50 for all entries; do not skip any.
1. Cc1ccc(NC(=Nc2ccn(C)n2)NC2CCc3sc(NC(=O)C4CC4)c(C(=O)NCC4CC4)c3C2)cc1 (centres unmarked) [Example 177, formic acid]
2. Cc1ccc(-c2cnc(C3CCc4sc(NC(=O)C5CC5)c(C(=O)NCC5CC5)c4C3)[nH]2)cc1 (centres unmarked) [Example 63]
3. N#CN=C(Nc1ccccc1)NC1CCc2sc(NC(=O)C3CC3)c(C(=O)NCC3CC3)c2C1 (centres unmarked) [Example 110]
4. CCNC(=N[N+](=O)[O-])NC1CCc2sc(NC(=O)C3CC3)c(C(=O)NCC3CC3)c2C1 (centres unmarked) [Example 123]
5. Cc1cn(C)nc1Nc1nncn1[C@H]1CCc2sc(NC(=O)C3CC3)c(C(=O)NCC3CC3)c2C1 [Example 230]
6. CC(C)NS(=O)(=O)NC1CCc2sc(NC(=O)C3CC3)c(C(=O)NCC3CC3)c2C1 (centres unmarked) [Example 204]

5.00 to 6.00
> 6.00
> 6.00
> 6.00
> 6.00
5.00 to 6.00

Record pIC50 per entry; entries follow.
1. NC(=O)c1ncn([C@H]2CCc3sc(NC(=O)C4CC4)c(C(=O)NCC4CC4)c3C2)c1N [Example 154]
2. Cc1nnc(C2CCc3sc(NC(=O)C4CC4)c(C(=O)NCC4CC4)c3C2)o1 (centres unmarked) [Example 72]
3. O=C(NCC1CC1)c1c(NC(=O)C2CC2)sc2c1CC(C(=O)N1CCS(=O)(=O)CC1)CC2 (centres unmarked) [Example 56]
4. N#CN=C(NC1CCc2sc(NC(=O)C3CC3)c(C(=O)NCC3CC3)c2C1)NN1CCOCC1 (centres unmarked) [Example 205]

1: > 6.00; 2: 5.00 to 6.00; 3: 4.30 to 5.00; 4: 5.00 to 6.00

Batch request: pIC50 per item, same order as input.
1. CC1CC(=O)c2sc(NC(=O)C3CC3)c(C(=O)NCC3CC3)c2C1 (centres unmarked) [Example 85]
2. CC(C)(C)OC(=O)NC1CCCc2c1sc(NC(=O)C1CC1)c2C(=O)NCC1CC1 (centres unmarked) [Example 97]
3. O=C(NCC1CC1)c1c(NC(=O)C2CC2)sc2c1CC(NCc1ccccc1)CC2 (centres unmarked) [Example 174]
4. CCNc1nccn1[C@H]1CCc2sc(NC(=O)C3CC3)c(C(=O)NCC3CC3)c2C1 [Example 147]
5. CCc1cc(Nc2nncn2[C@H]2CCc3sc(NC(=O)C4CC4)c(C(=O)NCC4CC4)c3C2)n(C)n1 [Example 228]

["5.00 to 6.00", "5.00 to 6.00", "4.30 to 5.00", "> 6.00", "> 6.00"]

Please state, for each entry, its recorded pIC50.
1. NC(=NO)NC1CCc2sc(NC(=O)C3CC3)c(C(=O)NCC3CC3)c2C1 (centres unmarked) [Example 176]
2. CNC(=O)c1c(NC(=O)C2CC2C)sc2c1CCCC2 (mixture of isomers) [Example 102]
3. Cc1ccc(OC(=O)NC2CCc3sc(NC(=O)C4CC4)c(C(=O)NCC4CC4)c3C2)cc1 (centres unmarked) [Example 181]
4. O=C(NCC1CC1)c1c(NC(=O)C2CC2)sc2c1C[C@H](C(F)(F)F)CC2 [Example 66]
5. CS(=O)(=O)N1CCc2sc(NC(=O)C3CC3)c(C(=O)NCC3CC3)c2C1 [Example 4]
6. O=C(NCC1CC1)c1c(NC(=O)C2CC2)sc2c1CNCC2 [Example 3, hydrochloride]

> 6.00
4.30 to 5.00
> 6.00
5.00 to 6.00
4.30 to 5.00
4.30 to 5.00

// for each compound below, give its pIC50
1. O=C(NCC1CC1)c1c(NC(=O)C2CC2)sc2c1C[C@@H](n1cnnc1Nc1cncnc1)CC2 [Example 132]
2. CS(=O)(=O)N1CCCc2c1sc(NC(=O)C1CC1)c2C(=O)NCC1CC1 [Example 6]

1. > 6.00
2. 5.00 to 6.00
